target: GSK3β (Homo sapiens, UniProt P49841); construct: recombinant, His tag (Sino Biological 10044-H07B); test: bio-layer interferometry (Octet K2, Ni-NTA); supported by CETSA in N2a lysate
Sequence (P49841 whole entry): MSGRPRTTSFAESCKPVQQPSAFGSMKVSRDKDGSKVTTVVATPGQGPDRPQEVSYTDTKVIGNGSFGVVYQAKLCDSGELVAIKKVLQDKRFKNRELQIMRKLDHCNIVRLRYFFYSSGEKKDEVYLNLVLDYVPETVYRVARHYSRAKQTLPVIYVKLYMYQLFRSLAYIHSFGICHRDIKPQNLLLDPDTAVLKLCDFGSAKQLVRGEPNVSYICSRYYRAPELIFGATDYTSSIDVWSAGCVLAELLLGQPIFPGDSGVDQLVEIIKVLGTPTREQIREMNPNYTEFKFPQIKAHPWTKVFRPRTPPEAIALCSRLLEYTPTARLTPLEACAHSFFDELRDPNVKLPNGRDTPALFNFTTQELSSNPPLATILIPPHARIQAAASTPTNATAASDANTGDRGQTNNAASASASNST
readout.name: pKd
For clarity, pKd is expressed as the negative log10 of concentration in mol/L.

Req: Missing value: pKd, GSK3β (Homo sapiens, UniProt P49841), entry CCn1cc(C(=O)O)c(=O)c2c(N)c(F)c(NC3CCCCC3)cc21 [AS, AS1842856] . Fill in?
Resp: 4.39

---

target: GSK3α (Homo sapiens); construct: recombinant, His tag (CLOUD-CLONE RPA360Hu01); experiment: bio-layer interferometry (Octet K2, Ni-NTA); supported by CETSA in N2a lysate
Sequence (P49840 2-483): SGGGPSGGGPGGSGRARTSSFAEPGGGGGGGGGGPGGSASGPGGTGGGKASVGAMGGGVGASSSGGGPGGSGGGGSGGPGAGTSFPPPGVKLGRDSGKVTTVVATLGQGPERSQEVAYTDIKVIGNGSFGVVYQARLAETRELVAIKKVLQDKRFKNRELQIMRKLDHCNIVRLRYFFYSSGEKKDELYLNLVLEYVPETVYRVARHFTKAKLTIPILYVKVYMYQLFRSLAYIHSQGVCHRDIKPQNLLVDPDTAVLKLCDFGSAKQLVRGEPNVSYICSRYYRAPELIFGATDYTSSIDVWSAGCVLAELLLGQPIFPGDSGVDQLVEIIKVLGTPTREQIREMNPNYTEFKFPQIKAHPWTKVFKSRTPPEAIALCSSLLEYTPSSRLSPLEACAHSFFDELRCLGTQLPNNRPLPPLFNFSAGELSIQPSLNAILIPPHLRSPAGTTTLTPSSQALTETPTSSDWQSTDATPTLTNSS
readout.name: pKd
# pKd: negative log10 of molar concentration; output just the value

Req: Dear colleague, I am looking for the recorded pKd of the following molecule: CCn1cc(C(=O)O)c(=O)c2c(N)c(F)c(NC3CCCCC3)cc21
Resp: 4.80
